Species: Rattus norvegicus
ASSAY_INFO: Open TG-GATES - Regimen: Daily Repeat
Format: toxicity, organism-based, Sprague-Dawley
Design: regimen Daily Repeat, gender Male, age 6 weeks
MEASUREMENT_CONTEXT: in vivo, po, 0 mg/kg, 72 h, tissue Plasma, route gavage, dose level Control, time 3 day
ASSAY_ENDPOINT: IP (mg/dL)
Report as a plain number; the unit mg/dL is understood.

>  <COMPOUND>
Cc1cccc(C)c1OCC(C)N (centres undefined)

>  <IP (mg/dL)>
7.6

$$$$
>  <COMPOUND>
CCOC(=O)C(C)(C)Oc1ccc(Cl)cc1 [CLOFIBRATE]

>  <IP (mg/dL)>
7

$$$$
>  <COMPOUND>
O=[N+]([O-])c1ccc(O)c([N+](=O)[O-])c1

>  <IP (mg/dL)>
7.4

$$$$
>  <COMPOUND>
C[C@H]1O[C@H](O[C@H]2[C@H](O)[C@@H](O)[C@@H](O[C@H]3[C@H](O)[C@@H](O)C(O)O[C@@H]3CO)O[C@@H]2CO)[C@H](O)[C@@H](O)[C@@H]1N[C@H]1C=C(CO)[C@@H](O)[C@H](O)[C@H]1O (some centres undefined)

>  <IP (mg/dL)>
7.5

$$$$
>  <COMPOUND>
Cn1cc[nH]c1=S

>  <IP (mg/dL)>
6.8

$$$$
>  <COMPOUND>
C[C@H]1C(=O)O[C@@H]2CCN3CC=C(COC(=O)[C@](C)(O)[C@]1(C)O)[C@H]23

>  <IP (mg/dL)>
6.9

$$$$
>  <COMPOUND>
OCCN1CCN(CCCN2c3ccccc3Sc3ccc(C(F)(F)F)cc32)CC1

>  <IP (mg/dL)>
8.5

$$$$
>  <COMPOUND>
C=C(C)[C@H]1Cc2c(ccc3c2O[C@@H]2COc4cc(OC)c(OC)cc4[C@@H]2C3=O)O1

>  <IP (mg/dL)>
7.1

$$$$

Then this compound:
Problem: Query (compound): `O=C1CN(/N=C/c2ccc([N+](=O)[O-])o2)C(=O)N1` ; field requested: IP
Result: 7.2

* * *

Species on record: Rattus norvegicus
ASSAY_INFO: Open TG-GATES - Regimen: Single
Format: toxicity, organism-based, Sprague-Dawley
Design: regimen Single, gender Male, age 6 weeks
MEASUREMENT_CONTEXT: in vivo, po, 0 mg/kg, 9 h, tissue Plasma, route gavage, dose level Control
Item-by-item account of RALB

Problem: Query (molecule): O=[N+]([O-])c1ccc(O)c([N+](=O)[O-])c1 [2,4-DINITROPHENOL] ; field requested: RALB
Result: 3.8 g/dL

* * *

Species: Rattus norvegicus
ASSAY_INFO: Open TG-GATES - Regimen: Single
Type: toxicity, organism-based, Sprague-Dawley
Set-up: regimen Single, gender Male, age 6 weeks
MEASUREMENT_CONTEXT: in vivo, po, 0 mg/kg, 9 h, tissue Blood, route gavage, dose level Control
Item-by-item account of WBC
Report as a plain number; the unit x10_2/uL is understood.

# annotated cases, reported WBC shown
>  <MOLECULE>
Cn1cc[nH]c1=S

>  <WBC / x10_2/uL>
102.4

$$$$
>  <MOLECULE>
Cc1cccc(C)c1OCC(C)N (centres undefined)

>  <WBC / x10_2/uL>
86.8

$$$$
>  <MOLECULE>
OCCN1CCN(CCCN2c3ccccc3Sc3ccc(C(F)(F)F)cc32)CC1

>  <WBC / x10_2/uL>
107.8

$$$$
>  <MOLECULE>
C[C@H]1O[C@H](O[C@H]2[C@H](O)[C@@H](O)[C@@H](O[C@H]3[C@H](O)[C@@H](O)C(O)O[C@@H]3CO)O[C@@H]2CO)[C@H](O)[C@@H](O)[C@@H]1N[C@H]1C=C(CO)[C@@H](O)[C@H](O)[C@H]1O (some centres undefined)

>  <WBC / x10_2/uL>
90.2

$$$$

Problem: Query (molecule): `Cc1ccc2cc3c(ccc4ccccc43)c3c2c1CC3` ; field requested: WBC
Result: 80.7

Problem: Query (molecule): CCOC(=O)C(C)(C)Oc1ccc(Cl)cc1 [CLOFIBRATE] ; field requested: WBC
Result: 78.9

Problem: Query (molecule): `C[C@H]1C(=O)O[C@@H]2CCN3CC=C(COC(=O)[C@](C)(O)[C@]1(C)O)[C@H]23` ; field requested: WBC
Result: 92.3

Problem: Query (molecule): `C=C(C)[C@H]1Cc2c(ccc3c2O[C@@H]2COc4cc(OC)c(OC)cc4[C@@H]2C3=O)O1` ; field requested: WBC
Result: 95

Problem: Query (molecule): `O=[N+]([O-])c1ccc(O)c([N+](=O)[O-])c1` ; field requested: WBC
Result: 108
